Every entry's value here was drawn from PubChem BioAssay.

- test name: inhibitors of TNFa-induced NFkB p65 translocation, primary screen, imaging, HUVEC, MLSMR starter and 10KST1 sets (AID 438);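 also: compound added about 3h40 before a 20 min TNFalpha stimulation; signal is the nuclear over cytoplasmic p65 intensity ratio per well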
- experimental parameters: HUVEC TNFa-induced p65 nuclear translocation; at 2 µM, stronger effect = higher value, 0% TNFa-plus-vehicle, 100% no-TNFa wells
Each record here notes measured inhibition.
experimental endpoint: inhibition (%)

{"smiles text": "CC(=O)N1C(=O)c2cccc3cccc(c23)C(=O)N1C(C)=O", "unit of measure": "%", "measured value": 4.6}
{"smiles text": "Cc1cc(C)n(-c2nc(C)nc3c2cnn3-c2ccccc2)n1", "unit of measure": "%", "measured value": 9.2}
{"smiles text": "O=C(CS(=O)(=O)Cc1ccccc1)Nc1nc2ccccc2s1", "unit of measure": "%", "measured value": -4}
{"smiles text": "Cn1c(Cc2ccccc2)nnc1SCC(=O)NC1CCCCC1", "unit of measure": "%", "measured value": -2.3}
{"smiles text": "CCOC(=O)c1cccc(NC(=O)Cn2cnc3c2c(=O)n(C)c(=O)n3C)c1", "unit of measure": "%", "measured value": 10.1}
{"smiles text": "COc1ccc(S(=O)(=O)N2CCN(C3CCCCCCC3)CC2)cc1", "unit of measure": "%", "measured value": 2}

* * *

- test name: endothelial E-selectin expression blockers – imaging, HUVEC, immunofluorescence, MLSMR starter and 10KST1 sets, primary screen (AID 487);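 also: 100% = median nuclei count of all wells on the same plate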
- experimental parameters: HUVEC TNFalpha-induced E-selectin immunofluorescence imaging, at 2 µM; measured here: cell number, toxicity
Each entry below lists one item and its recorded nuclei count value.
experimental endpoint: nuclei count

{"molecule": "O=C(O)C1C2CCC(C2)C1C(=O)NCCCn1ccnc1 (stereo unspecified)", "experimental endpoint": "nuclei count", "measured value": "65.1%"}
{"molecule": "CCOC(=O)Nc1cc(OCC)c(NC(=O)C2CC2)cc1OCC", "experimental endpoint": "nuclei count", "measured value": "119%"}
{"molecule": "CN(C)CCCN1c2ccccc2Sc2ccccc21", "experimental endpoint": "nuclei count", "measured value": "110%"}
{"molecule": "COc1ccc(-n2cc(-c3ccccc3)c3c(N4CCN(CCO)CC4)ncnc32)cc1", "experimental endpoint": "nuclei count", "measured value": "99.1%"}
{"molecule": "CCOC(=O)CSc1cn2c(n1)CCC2", "experimental endpoint": "nuclei count", "measured value": "89.1%"}
{"molecule": "O=P(O)(c1ccccc1)c1ccccc1O", "experimental endpoint": "nuclei count", "measured value": "77.2%"}

* * *

- target system: Voltage-gated potassium channel subunit beta-2 (Rattus norvegicus)
- test name: inhibitors of rat Kvbeta2 reductase activity – biochemical, NADPH fluorescence, primary screen (AID 622);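 also: slope of raw intensity against log time taken from 70 to 1610 s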
- experimental parameters: recombinant KvBeta, 4-cyanobenzaldehyde reduction, at 10 µM, stronger effect = higher value
compounds and their reported fluorescence slope

{"compound": "CCOc1ccc2nc(NC(=O)C(NS(=O)(=O)c3cccs3)C(C)C)sc2c1 (centres undefined)", "fluorescence slope": -0.423}
{"compound": "COc1ccccc1C(=O)Nc1c2c(nn1-c1cccc(C)c1C)CS(=O)(=O)C2", "fluorescence slope": -0.492}
{"compound": "COc1cccc(OCc2nc3c4cnn(-c5ccccc5)c4ncn3n2)c1", "fluorescence slope": -0.576}
{"compound": "CCOc1ccc(OCC)c(NC(=O)C2CCN(S(=O)(=O)c3cnc[nH]3)CC2)c1", "fluorescence slope": -0.572}
{"compound": "COC(=O)C1(C(=O)OC)Sc2ccccc2C1=O", "fluorescence slope": -0.571}
{"compound": "O=C(Nc1ccc(Cl)c(Cl)c1)Nc1cc(C(=O)N2CCOCC2)ccc1N1CCCCC1", "fluorescence slope": -0.441}
{"compound": "CC(=O)c1cccc(NC(=O)N2CCCC2C(=O)NCc2ccc(C)cc2)c1 (centres undefined)", "fluorescence slope": -0.216}
{"compound": "O=C1CC(c2ccco2)=Nc2ccccc2N1", "fluorescence slope": -0.573}
{"compound": "COc1cc(NC(=O)c2cc(OC)c(OC)c(OC)c2)c(OC)cc1NC(=O)CN1CCCCC1", "fluorescence slope": -0.309}
{"compound": "Cc1cc(C)c2oc(=O)cc(CN3CCOCC3)c2c1", "fluorescence slope": -0.551}
{"compound": "Cc1cc(C)n(C(=O)CNC(=O)c2ccc3c(c2)OCCO3)n1", "fluorescence slope": -0.374}
{"compound": "COc1ccc(-c2coc3c(CN4CCCCC4)c(O)c(CN4CCCCC4)c(O)c3c2=O)cc1", "fluorescence slope": -0.566}
{"compound": "c1ccc(CNC2=NCCC2)nc1", "fluorescence slope": -0.586}
{"compound": "O=c1c(-c2ccc(F)cc2)coc2c3c(ccc12)OCCO3", "fluorescence slope": -0.501}
{"compound": "Cc1cc2c(=O)n(CC(=O)N3CCN(c4ccccc4)CC3)cnc2s1", "fluorescence slope": -0.595}
{"compound": "Cc1[nH]c(=O)[nH]c(=O)c1S(=O)(=O)Nc1ccc(Oc2ccccc2)cc1", "fluorescence slope": -0.574}
{"compound": "O=C1NC(=O)C2(CCC(C(=O)O)C2)N1 (centres undefined)", "fluorescence slope": -0.408}
{"compound": "Cc1nc(SCC(=O)c2c[nH]c3ccccc23)n[nH]1", "fluorescence slope": -0.472}
{"compound": "O=C(CCN1CCCC1Cc1ccccc1)c1ccc2c(c1)OCCO2 (centres undefined)", "fluorescence slope": -0.423}
{"compound": "Nc1nc(C2C(=O)CCCC2=O)cs1", "fluorescence slope": -0.511}
{"compound": "CCOc1ccc2[nH]c(C)cc(=O)c2c1", "fluorescence slope": -0.554}
{"compound": "COc1ccc(S(=O)(=O)N2CCN(C3CCCCCCC3)CC2)cc1", "fluorescence slope": -0.533}
{"compound": "CC(O)CN(Cc1cccc(Cl)c1)CC(C)O (centres undefined)", "fluorescence slope": -0.431}
{"compound": "c1ccc(-c2csc(N3CCCCCC3)n2)cc1", "fluorescence slope": -0.551}

* * *

- target system: Voltage-gated potassium channel subunit beta-2 (Rattus norvegicus) (UniProt P62483)
- Sequence (P62483 whole entry, looked up): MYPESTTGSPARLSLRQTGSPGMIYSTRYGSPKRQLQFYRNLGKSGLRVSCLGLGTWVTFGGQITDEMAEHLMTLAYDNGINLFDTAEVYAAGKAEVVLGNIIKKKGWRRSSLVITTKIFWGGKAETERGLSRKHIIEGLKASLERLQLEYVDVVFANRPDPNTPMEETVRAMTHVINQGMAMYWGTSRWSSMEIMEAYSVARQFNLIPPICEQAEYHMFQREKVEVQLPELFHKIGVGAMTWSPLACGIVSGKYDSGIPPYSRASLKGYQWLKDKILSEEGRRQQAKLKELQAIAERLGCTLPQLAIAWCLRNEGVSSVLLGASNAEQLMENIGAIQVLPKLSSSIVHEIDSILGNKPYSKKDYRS
- test name: inhibitors of rat Kvbeta2 reductase activity – biochemical, NADPH fluorescence, primary screen (AID 622);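 also: slope of raw intensity against log time taken from 70 to 1610 s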
- experimental parameters: recombinant KvBeta, 4-cyanobenzaldehyde reduction, at 10 µM, stronger effect = higher value
Calls of active or inactive are those of the source.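 The calls were made as follows: active = fluorescence slope higher than the sample average by over 3 SD (cut at about -0.22 in these data, passing the limit was not always enough); inactive = the rest.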
experimental endpoint: fluorescence slope

{"compound": "CCOC(=O)c1ccc(NC(=O)CCc2nc(-c3ccc(C)cc3)no2)cc1", "measured value": "-0.556 (inactive)"}
{"compound": "Cc1ccc(-c2nc(-c3cccnc3)no2)c(C)c1", "measured value": "-0.571 (inactive)"}
{"compound": "COc1ccc(-c2cc3nc(C)c(CCC(=O)NCc4ccco4)c(C)n3n2)c(OC)c1", "measured value": "-0.443 (inactive)"}
{"compound": "CC1Cc2cc(/C(O)=C3/C(=O)C(=O)N(CCN4CCOCC4)C3c3cccc(O)c3)ccc2O1 (stereo unspecified)", "measured value": "-0.573 (inactive)"}
{"compound": "Cn1c(NCc2cccc(Br)c2)nc2ccccc21", "measured value": "-0.528 (inactive)"}
{"compound": "CC1(c2ccncc2)Nc2ccccc2-c2nc3ccccc3n21 (stereo unspecified)", "measured value": "-0.454 (inactive)"}

* * *

- test name: TLR3 IRF3 reporter activation blockers – cell-based, poly I:C stimulus, luciferase, 10K MLSCN set, primary screen (AID 602277)
- experimental parameters: HEK293-TLR3 RL24 IRF3 luciferase reporter, at 10 µM
Active and inactive are the calls of the source.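 The calls were made as follows: active = inhibition of the reporter signal at or above 50%; inactive = inhibition below 50%.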
Labels: 1 (active), 0 (inactive)

{"molecule": "CN(CC(=O)N1CCN(C2CCCCC2)CC1)S(=O)(=O)c1cccc2nsnc12", "group label": 0}
{"molecule": "O=C(Nc1ccc(F)cc1)c1cccc2c1C(=O)N(Cc1ccccn1)C2", "group label": 0}
{"molecule": "Cc1oc(-c2ccccc2)cc1C(N)=O", "group label": 0}
{"molecule": "N#Cc1c(NC(=O)COC(=O)C2CC3C=CC2C3)oc(-c2ccccc2)c1-c1ccccc1 (centres undefined)", "group label": 1}
{"molecule": "CCOc1ccc2[nH]c(C)cc(=O)c2c1", "group label": 0}
{"molecule": "COc1ccc(NC(=O)Cn2nnc(-c3ccccc3N)n2)cc1OC", "group label": 0}
{"molecule": "CCCCC(c1nnnn1C1CCCC1)N1CCN(C2CCCCC2)CC1 (centres undefined)", "group label": 0}
{"molecule": "Cc1ccc(Cn2c(SCC(C)C)nc3c2c(=O)n(C)c(=O)n3C)cc1", "group label": 0}
{"molecule": "O=C(O)CSc1ccc2ccccc2n1", "group label": 0}
{"molecule": "COc1ccc(N2C(=O)C3CCCN3C2c2ccc(F)cc2)cc1Cl (centres undefined)", "group label": 0}
{"molecule": "COCCCNC(=O)CC(NS(=O)(=O)c1ccc(Cl)cc1)c1ccco1 (centres undefined)", "group label": 0}
{"molecule": "O=c1[nH]c2c(s1)C(c1ccco1)C1C3CCC(C3)C1S2 (centres undefined)", "group label": 0}
{"molecule": "CN(Cc1cccs1)c1ncnc2sccc12", "group label": 0}
{"molecule": "Cc1cc2ncc(C(=O)Nc3ccccc3)c(C)n2n1", "group label": 0}
{"molecule": "CSc1ccccc1NS(=O)(=O)c1ccccc1", "group label": 0}
{"molecule": "COC(=O)c1nn(-c2ccc(-c3ccccc3)cc2)cc1O", "group label": 0}
{"molecule": "Cc1sc2ncnc(OCC(=O)N3CCN(S(=O)(=O)c4ccc(Cl)cc4)CC3)c2c1C", "group label": 1}
{"molecule": "COc1ccccc1N1CCN(C(=O)c2ccc(CS(=O)(=O)c3ccccc3OC)o2)CC1", "group label": 0}
{"molecule": "O=C(Cn1ccc2ccccc2c1=O)NCCC(=O)NC1CCN(Cc2ccccc2)CC1", "group label": 0}
{"molecule": "COC(=O)C1=C(C)NC(=O)C1(NC(=O)c1cccnc1)C(F)(F)F (centres undefined)", "group label": 1}
{"molecule": "COc1ccc(-c2nn3c(-c4ccncc4)nnc3s2)cc1OC", "group label": 0}
{"molecule": "Cc1n[nH]c(C)c1S(=O)(=O)N1CCN(c2ccccn2)CC1", "group label": 0}
{"molecule": "CCc1nccn1S(=O)(=O)c1ccc2ccc(C)cc2c1", "group label": 0}
{"molecule": "O=c1c2c(nc3nc(CCc4ccccc4)[nH]n13)CCC2", "group label": 0}
